TESTED SYSTEM: hemagglutinin (HA) of influenza A/Solomon Islands/3/06 H1N1 (Influenza A virus A/Solomon …)
TEST PROTOCOL: ELISA, inactivated whole virions coated; transfection supernatant set 5
PARAMETER MEASURED: OD450 (OD450)

TCN-523 (5248_A17) (antibody, V domains shown) VH: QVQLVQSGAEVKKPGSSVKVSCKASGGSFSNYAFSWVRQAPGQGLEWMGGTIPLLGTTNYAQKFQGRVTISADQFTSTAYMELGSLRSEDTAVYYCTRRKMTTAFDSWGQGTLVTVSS VL: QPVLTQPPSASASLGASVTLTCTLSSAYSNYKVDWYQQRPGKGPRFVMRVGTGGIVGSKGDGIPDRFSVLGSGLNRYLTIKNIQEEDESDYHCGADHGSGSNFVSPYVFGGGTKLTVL
3.62
TCN-546 (5089_L08) (antibody, V domains shown) VH: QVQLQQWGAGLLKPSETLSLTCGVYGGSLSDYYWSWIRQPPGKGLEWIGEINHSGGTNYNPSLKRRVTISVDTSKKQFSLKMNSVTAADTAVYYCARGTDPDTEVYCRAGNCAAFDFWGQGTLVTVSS VL: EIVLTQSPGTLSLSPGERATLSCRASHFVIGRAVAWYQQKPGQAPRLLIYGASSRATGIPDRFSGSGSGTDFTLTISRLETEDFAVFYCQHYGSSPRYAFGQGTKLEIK
3.67
TCN-538 (3206_O17) (antibody, V domains shown) VH: QITLKESGPTLVKPTQTLTLTCVFSGFSLSITGVRVGWIRQPPGKALEWLALISWDDEKHYSPSLQSRLTITKDTSKNQVVLTMTNLDPVDTATYYCARSTDRGHVLRYFGWMLPGDAFDVWGQGTMVTVSS VL: DIVMTQSPDFLPVSLGERATINCKSSQRVLYSSNNKNYLAWYQLKPGQPPKLIIYWASTRESGVPDRFSGSGSGTEFTLTISSLQAEDVAVYYCQQYYSRPYTFGQGTKLEIK
3.59
TCN-553 (5261_C18) (antibody, V domains shown) VH: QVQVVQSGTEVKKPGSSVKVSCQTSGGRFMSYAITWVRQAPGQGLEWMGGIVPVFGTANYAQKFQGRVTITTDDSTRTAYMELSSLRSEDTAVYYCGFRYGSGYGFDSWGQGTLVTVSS VL: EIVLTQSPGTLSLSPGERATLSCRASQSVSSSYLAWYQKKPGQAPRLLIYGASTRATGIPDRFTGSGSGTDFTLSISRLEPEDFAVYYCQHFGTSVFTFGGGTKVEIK
3.56
